Tested on: WEE1;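 further: KINOMEscan kinase panel screen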
Conditions: concentration: 1 μM,replicates: in singlicate; n = 1
# %Inh listing for each entry below
readoutLabel: %Inh (%)

{"structure": "O=C(Nc1ccc(Oc2ccc3nc(NC(=O)C4CC4)cn3n2)c(F)c1)c1cccn(-c2ccccc2)c1=O", "readoutLabel": "%Inh", "readoutValue": 14}
{"structure": "Cn1ccc2ncnc(Oc3ccc(NC(=O)Nc4cccc(C(F)(F)F)c4)c(Cl)c3)c21", "readoutLabel": "%Inh", "readoutValue": 3}
{"structure": "C[C@@H]1CCN(C(=O)N2CCCC2)C[C@@H]1N(C)c1ncnc2[nH]ccc12", "readoutLabel": "%Inh", "readoutValue": 0}
{"structure": "O=C(NCC1CC1)c1ccc(-c2cc(C(=O)NC3CC3)ccc2F)cc1", "readoutLabel": "%Inh", "readoutValue": 0}
{"structure": "C[C@@H]1CNc2c(sc3ccc4nc(-c5ccncc5)ccc4c23)C(=O)N1", "readoutLabel": "%Inh", "readoutValue": 0}
{"structure": "Cn1ccc2ncnc(Oc3ccc(NC(=O)Nc4cncc(C(F)(F)F)c4)c(Cl)c3)c21", "readoutLabel": "%Inh", "readoutValue": 0}
{"structure": "CS(=O)(=O)c1cccc(CNc2nc(Nc3ccc4c(c3)[C@@H]3C[C@@H]4CNC3=O)ncc2C(F)(F)F)c1", "readoutLabel": "%Inh", "readoutValue": 2}
{"structure": "COc1cc2nccc(Nc3ccc(Oc4ccccc4)cc3)c2cc1OC.Cl", "readoutLabel": "%Inh", "readoutValue": 0}
